System: MDA-N
Test: NCI tumour cell line growth inhibition, 48 h
measurement-kind: TGI

INSERT INTO assay_data (compound, reported) VALUES
  ('CC1OC2OC3C(OCC(O)C3O)OC(=O)[C@]34CCC(C)(C)CC3C3=CCC5[C@@]6(C)C[C@H](O)[C@H](OC7OC(CO)C(O)C(O)C7OC7OC(COC(=O)CC(C)(O)CC(=O)OC1C(OC1OC(CO)C(O)C(O)C1O)C2O)C(O)C(O)C7O)[C@@](C)(CO)C6CC[C@@]5(C)[C@]3(C)CC4 (some centres undefined)', '2.65 µM'),
  ('CN(C)CCN1C(=O)N(CCN(C)C)c2c3cc(O)ccc3nc3c([N+](=O)[O-])ccc1c23', '26.7 µM'),
  ('CCCCCc1cc(CCCC)sc1-c1ccco1', '> 100 µM'),
  ('COc1ccc(C(=O)/C=C/c2ccc(OCCCCCCCCCCOc3ccc(/C=C/C(=O)c4ccc(OC)c(OC)c4)cc3)cc2)c(OC)c1', '> 100 µM'),
  ('COC(=O)c1ccc2cc(O)ccc2c1', '> 100 µM'),
  ('Cc1nnc(N=Nc2c(O)[nH]c3ccccc23)[nH]c1=O', '> 100 µM'),
  ('C=C[C@@]1(C)CC(=O)[C@]2(O)[C@@]3(C)[C@@H](O)CCC(C)(C)[C@@H]3[C@H](O)[C@@H](OC(C)=O)[C@@]2(C)O1', '> 100 µM'),
  ('CCOC(=O)C(NC(=O)CC)(Nc1ccccc1F)C(F)(F)F (centres undefined)', '> 100 µM'),
  ('CN(C)C(=O)/N=C1\SC(=Nc2ccccc2)C(=Nc2ccccc2)N1c1ccc([N+](=O)[O-])cc1', '> 100 µM');
